Molecular target: Gag-Pol polyprotein (Human immunodeficiency virus type 1 group M subtype B (isolate HXB2)) (UniProt P04585)
Test: RNase H inhibition, HIV 1 Gag Pol polyprotein, FRET biochemical assay, screening (AID 372)
Conditions: HIV-1 RT RNase H, FRET RNA/DNA substrate fluorescence; at 10 µM
Among all 100,000 compounds or so, about 770 (0.77%) were called active. Rule as the data show it: active = inhibition above about 50%; inactive = the rest. Shown is part of a subset that was picked to be rich in actives.
Outcomes: y (active), n (inactive)

molecule	labelValue
O=C1N=c2ccccc2=C1c1sc(=S)n(-c2ccc(F)cc2)c1O	n
COc1ccc(OC)c(N(CC(=O)N(Cc2ccccc2)Cc2ccccc2)S(=O)(=O)c2ccccc2)c1	n
COc1cccc(C2/C(=C(\O)c3ccc(Cl)cc3)C(=O)C(=O)N2CCCCCC(=O)O)c1 (stereo unspecified)	n
CC1CCN(C(=O)c2ccc(N(C)S(=O)(=O)c3ccccc3)cc2)CC1	y
CCOc1cc(/C=C2/C(=O)NN(c3ccc(I)cc3)C2=O)ccc1O	n
CN1C(=O)C(=C/C=C/c2ccco2)C(=O)N(C)C1=S	n
O=S(=O)(CCc1nnc(-c2ccc(Br)cc2)o1)c1ccc(Cl)cc1	n
Cc1cccc(C)c1NC(=O)c1ccc(N(C)S(=O)(=O)c2ccccc2)cc1	y
O=C(O)c1ccc(C(=O)Nc2ccccc2Oc2ccccc2)c(C(=O)O)c1	n
Cc1ccc(N2NC(=O)/C(=C/c3ccc(O)c([N+](=O)[O-])c3)C2=O)cc1	n
O=C1N=c2ccc(Br)cc2=C1c1sc(=O)n(-c2ccc(O)cc2)c1O	n
O=C(O)C1CCC(c2ccccc2)CC1 (stereo unspecified)	n
NC1=NC(=O)/C(=C/c2cc(Br)ccc2OCc2ccccc2)S1	n
CN(c1ccc(C(=O)Nc2ccccc2F)cc1)S(=O)(=O)c1ccccc1	n
Cc1cc(C)c(C=Nc2cc([N+](=O)[O-])ccc2C)c(C)c1	n
Cc1ccc(C(=O)Nc2ccc(I)cc2)o1	n
Cc1nnc(Nc2ccc3c(c2)ncn3C)c2ccccc12	n
Cc1cccc(CSCc2nnc(NC(=O)Nc3ccc(Cl)cc3)s2)c1	n
O=C1N=c2ccc(Br)cc2=C1c1sc(=S)n(-c2ccc(Br)cc2)c1O	n
O=C1NN(c2ccc(I)cc2)C(=O)/C1=C\c1ccc(F)cc1	n
Cc1csc(N/N=C/c2cccc(OCc3ccccc3)c2)n1	n
Cc1ccccc1CNC(=O)c1ccc(N(C)S(=O)(=O)c2ccccc2)cc1	n
O=C(Nc1nnc(Cc2ccccc2F)s1)Nc1ccc(Cl)cc1Cl	n
CCC(c1ccccc1)c1nnc(NC(=O)Nc2ccc(Cl)cc2Cl)s1 (stereo unspecified)	n
Cc1ccc(N2NC(=O)/C(=C/c3ccc(O)c(O)c3)C2=O)cc1	y
CN(c1ccc(C(=O)Nc2cc(Cl)cc(Cl)c2)cc1)S(=O)(=O)c1ccccc1	n
Cc1ccc(N2NC(=O)/C(=C/c3cc(I)cc(I)c3O)C2=O)cc1	n
CN(c1ccc(C(=O)N2CCN(c3ccccc3)CC2)cc1)S(=O)(=O)c1ccccc1	n
Cc1ccc(N2C(=O)NC(=O)/C(=C/c3ccc(O)c(O)c3)C2=O)cc1	n
N#CC1=C(N)OC2=C(C(=O)CC(c3ccccc3)C2)C1c1cccc(F)c1 (stereo unspecified)	n
Cc1cccc(CSCc2nnc(NC(=O)Nc3ccc(Cl)cc3Cl)s2)c1	y
COc1ccc(Cl)cc1/C=C1\C(=O)NC(=S)N(c2cccc(Cl)c2Cl)C1=O	n
COC(=O)C1=C(C)N(C)C(=O)/C1=C\c1ccco1	n
O=C1NC(=O)N(c2ccc(Br)cc2)C(=O)/C1=C/c1ccco1	n
O=C(Nc1ccc(F)cc1)Nc1nnc(-c2ccccc2SCc2ccccc2)s1	n
Cc1ccc(N2NC(=O)/C(=C/c3ccc(O)cc3)C2=O)cc1C	n
CN(c1ccc(C(=O)N2CCCC2)cc1)S(=O)(=O)c1ccccc1	n
CCOC(=O)c1c(NC(=O)c2cc(-c3ccc(OC)cc3)nc3ccccc23)sc2c1CCCCC2	n
O=C1N=c2ccc(Cl)cc2=C1c1sc(=O)n(-c2ccccc2)c1O	n
COc1cc(/C=C2/C(=O)NN(c3ccc(C)c(C)c3)C2=O)ccc1O	n
O=C(Nc1nnc(Cc2ccc(Cl)cc2Cl)s1)Nc1ccc(Cl)cc1Cl	y
COC(=O)c1ccc(NC(=O)Cc2ccc(OC)cc2)cc1	n
O=C(Nc1nnc(Cc2ccc(Cl)cc2)s1)Nc1ccc(Cl)cc1Cl	n
CCNC(=O)C(=O)Nc1ccccc1C	n
Cc1ccccc1N1C(=O)/C(=C\c2ccco2)C(=O)N(c2ccccc2)C1=S	n
Cn1cc(/C=C2/SC(=O)N(c3ccccc3)C2=O)c2ccccc21	n

---

Reported values of inhibition for individual entries
Target: Gag-Pol polyprotein (Human immunodeficiency virus type 1 group M subtype B (isolate HXB2)) (UniProt P04585)
Assay: RNase H inhibition, HIV 1 Gag Pol polyprotein, FRET biochemical assay, screening (AID 372)
Conditions: HIV-1 RT RNase H, FRET RNA/DNA substrate fluorescence; at 10 µM; hits give high values
Out of some 100,000 compounds screened, about 770 (0.77%) were called active. The list comes from a sample in which actives are over-represented; it also holds close analogues and randomly drawn compounds.
attributeMeasured: inhibition (%)

structureString	attributeMeasured	unitsOfMeasure	reading
Cc1cc(C)cc(OCC(=O)Nc2cc(-c3nc4cc(C)cc(C)c4o3)ccc2C)c1	inhibition	%	14
CC1=NN(c2ccc(S(N)(=O)=O)cc2)C(=O)/C1=C\c1ccc(-c2cc([N+](=O)[O-])ccc2C)o1	inhibition	%	42
CC1=NN(c2ccc(S(N)(=O)=O)cc2)C(=O)/C1=C\c1ccc(-c2cc([N+](=O)[O-])ccc2Cl)o1	inhibition	%	46
COc1cc([N+](=O)[O-])ccc1-c1ccc(/C=C2\C(=O)N(c3ccc(C(=O)O)cc3)N=C2C)o1	inhibition	%	26

---

Biological target: Gag-Pol polyprotein (Human immunodeficiency virus type 1 group M subtype B (isolate HXB2))
Experiment: RNase H inhibition, HIV 1 Gag Pol polyprotein, FRET biochemical assay, screening (AID 372)
Conditions: HIV-1 RT RNase H, FRET RNA/DNA substrate fluorescence; at 10 µM
Out of some 100,000 compounds screened, about 770 (0.77%) were called active. No stated cut-off is given here; in the data, active means inhibition above about 50%; inactive means the rest. The sample as a whole holds a higher share of actives than the screen did.
Outcomes: active, inactive

molecule	labelValue
O=C(CSc1nc2ccccc2s1)Nc1ccc(F)c(Cl)c1	inactive
Cc1cc(/C=N/O)c(C)n1-c1ccc(N(C)C)cc1	inactive
N#Cc1cc2c(N)c(C(=O)c3ccccc3)sc2nc1N	inactive
O=C(CSc1nc2ccccc2s1)Nc1ccc(Cl)cc1	inactive
CC(=O)c1ccc(NC(=S)NC(=O)c2ccc(Br)cc2)cc1	inactive
Cc1ccc(C(=O)Oc2ccc(Cl)cc2C)cc1	inactive
S=C(Nc1cccc2ccccc12)N1CCN(C(c2ccccc2)c2ccccc2)CC1	inactive
Cc1ccc(C2(C)N(O)C(C)C(c3ccccc3)=[N+]2[O-])cc1 (stereo not drawn)	inactive
Brc1ccc(/C=N/Nc2ncnc3c2cnn3-c2ccccc2)cc1	inactive
O=C(CSc1nc2ccccc2s1)NNC(=S)NC1CCCCC1	active
S=C(Nc1ccccc1)N1CCN(C(c2ccccc2)c2ccccc2)CC1	active
CC(C)(C)c1ccc(C(=O)NCCSc2ccc(Cl)cc2)cc1	inactive
CCC(=O)Nc1ccc2nc(SCC(=O)Nc3ccc(C(C)=O)cc3)sc2c1	inactive
O=C(Nc1ccc(S(=O)(=O)N2CCCCCC2)cc1)c1cccc([N+](=O)[O-])c1	inactive
O=C1c2ccccc2-c2onc3ccc(Oc4ccccc4)c1c23	inactive
O=c1oc2cc(OCc3c(F)cccc3Cl)ccc2cc1-c1ccccn1	inactive
C=CCNC(=S)Nc1ccc2nc3c4ccccc4c4ccccc4c3nc2c1	inactive
COc1ccc(/C(C)=N/NC(=O)c2ccncc2)c(OC)c1OC	inactive
Cc1ccc(Oc2ccc3noc4c3c2C(=O)c2ccccc2-4)cc1	inactive
COc1ccc(N(CC(=O)NCc2ccccn2)S(=O)(=O)c2ccccc2[N+](=O)[O-])c(OC)c1	inactive
CCOC(=O)c1ccc(Nc2cc(-c3ccccc3)ncn2)cc1	inactive
S=C(Nc1ccccc1)N1CCN(C(=S)Nc2ccccc2)CC1	inactive
COCCOC(=O)C1=C(C)NC(=O)CC1c1ccccc1Br (stereo not drawn)	inactive

---

Target: Gag-Pol polyprotein (Human immunodeficiency virus type 1 group M subtype B (isolate HXB2)) (UniProt P04585)
Test: RNase H inhibition, HIV 1 Gag Pol polyprotein, FRET biochemical assay, screening (AID 372)
Conditions: HIV-1 RT RNase H, FRET RNA/DNA substrate fluorescence; at 10 µM; hits give high values
Out of some 100,000 compounds screened, about 770 (0.77%) were called active. This is one part of a sample in which actives are shown more often than they occur.
Binary call on inhibition: Yes from 10% upward, No beneath that.

structureString	labelValue
Nc1nonc1C(=Nc1ccccc1)NOCc1ccc(Cl)cc1Cl	Yes
Cc1cccc(NC(=O)c2cc(Cl)ccc2Cl)n1	Yes
Cc1ccnc(NC(=O)c2ccc(OCC(C)C)cc2)c1	No
O=c1nc(/C=C/c2ccc(-c3ccc(F)c(Cl)c3)o2)cc(C(F)(F)F)[nH]1	Yes
Cc1ccccc1N=C(NOCc1ccc(Cl)cc1Cl)c1nonc1N	Yes
O=C(/C=C/c1cccs1)c1ccc(C(=O)/C=C/c2cccs2)cc1	Yes
CC(=O)Nc1ccc(NC(=O)c2cc(Cl)ccc2Cl)cc1	No
Fc1ccc(Br)cc1SCCc1ccccn1	No
O=C(/C=C/c1cccc2ccccc12)Nc1ccc(Nc2ccccc2)cc1	Yes
CC(=O)Nc1cccc(NC(=O)c2cc(Cl)ccc2Cl)c1	Yes
CC(=O)Nc1cccc(NC(=O)c2ccc(Cl)cc2Cl)c1	No
CCc1ccc2[nH]c3nc(NN)nnc3c2c1	No
